Measured IC50 values are reported for all entries that follow.
# Target or test system: KRAS G12S (Homo sapiens, UniProt P01116, G12S)
# Construct: 4 nM KRAS; aa1-188 containing the G12V, G12C, G12A or G12S amino acid substitution
# Sequence (P01116 1-188 isoform P01116-2 G12S): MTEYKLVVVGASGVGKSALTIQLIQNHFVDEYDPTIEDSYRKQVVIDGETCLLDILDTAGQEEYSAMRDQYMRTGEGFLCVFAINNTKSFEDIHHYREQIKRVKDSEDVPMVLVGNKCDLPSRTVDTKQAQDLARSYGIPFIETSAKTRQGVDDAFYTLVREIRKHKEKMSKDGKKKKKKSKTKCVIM
# Protocol summary: HTRF nucleotide exchange assay (NEA), KRAS G12S
# Type: biochemical
Quantity: IC50

Compound	Target or test system	Result
O=C1CCN(c2nc(OCC34CCCN3CCC4)nc3c(F)c(-c4cc(O)cc5ccccc45)ncc23)CCN1 [Example 13]	KRAS G12S (Homo sapiens, UniProt P01116, G12S)	100 to 10000 nM
O=S1(=O)CCN(c2nc(OCC34CCCN3CCC4)nc3c(F)c(-c4cc(O)cc5ccccc45)ncc23)CC1 [Example 22]	KRAS G12S (Homo sapiens, UniProt P01116, G12S)	100 to 10000 nM
Oc1cc(-c2ncc3c(N4CCC(O)CC4)nc(OCC45CCCN4CCC5)nc3c2F)c2ccccc2c1 [Example 41]	KRAS G12S (Homo sapiens, UniProt P01116, G12S)	100 to 10000 nM
O=C1CN(c2nc(OCC34CCCN3CCC4)nc3c(F)c(-c4cc(O)cc5ccccc45)ncc23)CCCN1 [Example 14]	KRAS G12S (Homo sapiens, UniProt P01116, G12S)	100 to 10000 nM
CS(=O)(=O)CCCNc1nc(OCC23CCCN2CCC3)nc2c(F)c(-c3cc(O)cc4ccccc34)ncc12 [Example 46]	KRAS G12S (Homo sapiens, UniProt P01116, G12S)	100 to 10000 nM
Oc1cc(-c2ncc3c(N4CCCCC4)nc(OCC45CCCN4CCC5)nc3c2F)c2ccccc2c1 [Example 34]	KRAS G12S (Homo sapiens, UniProt P01116, G12S)	100 to 10000 nM
C#Cc1c(F)ccc2cc(O)cc(-c3ncc4c(N5CCCCCC5)nc(OC[C@@]56CCCN5C[C@H](F)C6)nc4c3F)c12 (relative stereo) [Example 84]	KRAS G12S (Homo sapiens, UniProt P01116, G12S)	≤ 10 nM
Oc1cc(-c2ncc3c(N4CCCC5(COC5)C4)nc(OCC45CCCN4CCC5)nc3c2F)c2ccccc2c1 [Example 52]	KRAS G12S (Homo sapiens, UniProt P01116, G12S)	100 to 10000 nM
Oc1cc(-c2ncc3c(N4CC5CCC(C5)C4)nc(OCC45CCCN4CCC5)nc3c2F)c2ccccc2c1 [Example 47]	KRAS G12S (Homo sapiens, UniProt P01116, G12S)	100 to 10000 nM
CC1CN(c2nc(OCC34CCCN3CCC4)nc3c(F)c(-c4cc(O)cc5ccccc45)ncc23)CCCO1 (stereo not shown) [Example 16]	KRAS G12S (Homo sapiens, UniProt P01116, G12S)	100 to 10000 nM
Oc1cc(-c2ncc3c(N4CCCC(O)CC4)nc(OCC45CCCN4CCC5)nc3c2F)c2ccccc2c1 (stereo not shown) [Example 70]	KRAS G12S (Homo sapiens, UniProt P01116, G12S)	100 to 10000 nM
CC1COCCN(c2nc(OCC34CCCN3CCC4)nc3c(F)c(-c4cc(O)cc5ccccc45)ncc23)C1 (stereo not shown) [Example 19]	KRAS G12S (Homo sapiens, UniProt P01116, G12S)	100 to 10000 nM
Oc1cc(-c2ncc3c(N4CCCOCC4)nc(OCC45CCCN4CCC5)nc3c2F)c2ccccc2c1 [Example 3]	KRAS G12S (Homo sapiens, UniProt P01116, G12S)	10 to 100 nM

---

# Target or test system: KRAS G12A (Homo sapiens, UniProt P01116, G12A)
# Construct: 4 nM KRAS; aa1-188 containing the G12V, G12C, G12A or G12S amino acid substitution
# Sequence (P01116 1-188 isoform P01116-2 G12A): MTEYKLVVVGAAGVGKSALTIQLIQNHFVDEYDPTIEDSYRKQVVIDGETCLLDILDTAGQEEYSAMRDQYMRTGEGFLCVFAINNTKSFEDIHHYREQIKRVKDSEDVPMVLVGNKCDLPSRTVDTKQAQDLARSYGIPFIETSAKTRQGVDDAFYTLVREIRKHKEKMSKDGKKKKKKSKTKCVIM
# Protocol summary: HTRF nucleotide exchange assay (NEA), KRAS G12A

Smiles code	IC50
Oc1cc(-c2ncc3c(N4CCC(O)CC4)nc(OCC45CCCN4CCC5)nc3c2F)c2ccccc2c1	10 to 100 nM
O=S1(=O)CCN(c2nc(OCC34CCCN3CCC4)nc3c(F)c(-c4cc(O)cc5ccccc45)ncc23)CCN1	100 to 10000 nM
Oc1cc(-c2ncc3c(N4CCOC5(CCCC5)C4)nc(OCC45CCCN4CCC5)nc3c2F)c2ccccc2c1	100 to 10000 nM
N#CC1CCN(c2nc(OCC34CCCN3CCC4)nc3c(F)c(-c4cc(O)cc5ccccc45)ncc23)CC1	10 to 100 nM

---

# Target or test system: KRAS G12C (Homo sapiens, UniProt P01116, G12C)
# Construct: 4 nM KRAS; aa1-188 containing the G12V, G12C, G12A or G12S amino acid substitution
# Sequence (P01116 1-188 isoform P01116-2 G12C): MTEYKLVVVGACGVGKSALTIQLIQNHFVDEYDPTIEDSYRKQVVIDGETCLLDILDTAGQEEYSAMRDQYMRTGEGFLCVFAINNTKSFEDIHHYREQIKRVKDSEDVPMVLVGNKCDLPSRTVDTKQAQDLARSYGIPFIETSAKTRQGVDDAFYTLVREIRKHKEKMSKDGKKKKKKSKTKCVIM
# Protocol summary: HTRF nucleotide exchange assay (NEA), KRAS G12C
# Type: biochemical
# Condition info: recombinant human KRAS G12C aa1-188, 4 nM; lowest class = % inhibition at 10 μM

Compound	IC50
CC(C)(O)C1CCN(c2nc(OCC34CCCN3CCC4)nc3c(F)c(-c4cc(O)cc5ccccc45)ncc23)C1 (stereo not shown) [Example 74]	> 10 µM

---

The entries below come with measured IC50 values attached.
# Target or test system: KRAS WT (Homo sapiens, UniProt P01116)
# Construct: Recombinant human RAS protein (2 nM); aa1-188 KRAS WT
# Sequence (P01116 1-188 isoform P01116-2): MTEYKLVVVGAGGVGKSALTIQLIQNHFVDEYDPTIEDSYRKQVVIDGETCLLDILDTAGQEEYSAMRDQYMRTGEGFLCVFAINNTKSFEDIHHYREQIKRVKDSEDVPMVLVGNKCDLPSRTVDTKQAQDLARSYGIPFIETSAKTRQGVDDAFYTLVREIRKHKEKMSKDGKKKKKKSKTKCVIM
# Protocol summary: HTRF nucleotide exchange assay (NEA), KRAS WT
# Type: biochemical

Compound	IC50
COC(C)(C)CCNc1nc(OCC23CCCN2CCC3)nc2c(F)c(-c3cc(O)cc4ccccc34)ncc12	0.1 to 10 µM
CN(c1nc(OCC23CCCN2CCC3)nc2c(F)c(-c3cc(O)cc4ccccc34)ncc12)C1CCOCC1	0.1 to 10 µM
CN(C)CC1(COc2nc(N3CCCOCC3)c3cnc(-c4cc(O)cc5ccccc45)c(F)c3n2)CC1	0.01 to 0.1 µM
Oc1cc(-c2ncc3c(N4CC5CC4CC5O)nc(OCC45CCCN4CCC5)nc3c2F)c2ccccc2c1 (centres unmarked)	0.1 to 10 µM
C#Cc1c(F)ccc2cc(O)cc(-c3ncc4c(N5CCCNC(=O)C5)nc(OC[C@@]56CCCN5C[C@H](F)C6)nc4c3F)c12 (relative stereo)	≤ 0.01 µM
O=C1CC2(CCN(c3nc(OCC45CCCN4CCC5)nc4c(F)c(-c5cc(O)cc6ccccc56)ncc34)C2)CN1 (centres unmarked)	0.1 to 10 µM
C#Cc1c(F)ccc2cc(O)cc(-c3ncc4c(NCCCOC)nc(OC[C@@]56CCCN5C[C@H](F)C6)nc4c3F)c12 (relative stereo)	≤ 0.01 µM
CSCCCNc1nc(OCC23CCCN2CCC3)nc2c(F)c(-c3cc(O)cc4ccccc34)ncc12	0.1 to 10 µM
CC1CN(c2nc(OCC34CCCN3CCC4)nc3c(F)c(-c4cc(O)cc5ccccc45)ncc23)CCCO1 (centres unmarked)	0.01 to 0.1 µM
C#Cc1c(F)ccc2cc(O)cc(-c3ncc4c(N5CCNC(=O)CC5)nc(OC[C@@]56CCCN5C[C@H](F)C6)nc4c3F)c12 (relative stereo)	≤ 0.01 µM
O=S1(=O)CCN(c2nc(OCC34CCCN3CCC4)nc3c(F)c(-c4cc(O)cc5ccccc45)ncc23)CCN1	0.1 to 10 µM
O=C1NCCC12CCN(c1nc(OCC34CCCN3CCC4)nc3c(F)c(-c4cc(O)cc5ccccc45)ncc13)CC2	0.1 to 10 µM
C#Cc1c(F)ccc2cc(O)cc(-c3ncc4c(N5CCCCCC5)nc(OC[C@@]56CCCN5C[C@H](F)C6)nc4c3F)c12 (relative stereo)	≤ 0.01 µM
OCC1CCN(c2nc(OCC34CCCN3CCC4)nc3c(F)c(-c4cc(O)cc5ccccc45)ncc23)C1 (centres unmarked)	0.1 to 10 µM
Oc1cc(-c2ncc3c(N4CCCC5(CCOC5)C4)nc(OCC45CCCN4CCC5)nc3c2F)c2ccccc2c1 (centres unmarked)	0.1 to 10 µM
CC1(C#N)CCN(c2nc(OCC34CCCN3CCC4)nc3c(F)c(-c4cc(O)cc5ccccc45)ncc23)CC1	0.1 to 10 µM
CC(C)(O)C1CCN(c2nc(OCC34CCCN3CCC4)nc3c(F)c(-c4cc(O)cc5ccccc45)ncc23)C1 (centres unmarked)	0.1 to 10 µM
CC1CN(c2nc(OCC34CCCN3CCC4)nc3c(F)c(-c4cc(O)cc5ccccc45)ncc23)CCO1 (centres unmarked)	0.1 to 10 µM
Oc1cc(-c2ncc3c(N4CCCC(O)CC4)nc(OCC45CCCN4CCC5)nc3c2F)c2ccccc2c1 (centres unmarked)	0.01 to 0.1 µM
Oc1cc(-c2ncc3c(N4CCOC5(CCCC5)C4)nc(OCC45CCCN4CCC5)nc3c2F)c2ccccc2c1	0.1 to 10 µM
CC1COCCN(c2nc(OCC34CCCN3CCC4)nc3c(F)c(-c4cc(O)cc5ccccc45)ncc23)C1 (centres unmarked)	0.01 to 0.1 µM
O=C1CN(c2nc(OCC34CCCN3CCC4)nc3c(F)c(-c4cc(O)cc5ccccc45)ncc23)CCCN1	0.1 to 10 µM
O=C1CN(c2nc(OCC34CCCN3CCC4)nc3c(F)c(-c4cc(O)cc5ccccc45)ncc23)CCN1	0.1 to 10 µM
Oc1cc(-c2ncc3c(N4CCC5COCC5C4)nc(OCC45CCCN4CCC5)nc3c2F)c2ccccc2c1 (centres unmarked)	0.1 to 10 µM
OCC1CCN(c2nc(OCC34CCCN3CCC4)nc3c(F)c(-c4cc(O)cc5ccccc45)ncc23)CC1	0.01 to 0.1 µM
Oc1cc(-c2ncc3c(N4CC5COCC(C5)C4)nc(OCC45CCCN4CCC5)nc3c2F)c2ccccc2c1	0.1 to 10 µM
Oc1cc(-c2ncc3c(N4CCCCCC4)nc(OCC45CCCN4CCC5)nc3c2F)c2ccccc2c1	0.01 to 0.1 µM
COCC(C)CNc1nc(OCC23CCCN2CCC3)nc2c(F)c(-c3cc(O)cc4ccccc34)ncc12 (centres unmarked)	0.1 to 10 µM
Oc1cc(-c2ncc3c(N4CC5CNCC5C4)nc(OCC45CCCN4CCC5)nc3c2F)c2ccccc2c1 (centres unmarked)	0.1 to 10 µM

These data points were gathered from patent US20240279241A1.
